Below, each entry is listed with its recorded protein stability index.
B1: ADD1 (parent)
chain: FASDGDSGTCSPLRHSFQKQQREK

# Variants of: B1
# assay: protein stability index of a GFP-peptide fusion (GPS, HEK-293T) (PSI 1-6); higher = more stable;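 further: lentivirally expressed fusions sorted by FACS into six bins by GFP to DsRed ratio, PSI derived from sequencing read proportions per bin multiplied by bin number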
# condition_label: c terminus: a fixed tail appended

Solved cases (4 shown):
variant_string: T9V
protein stability index: 3.31
//
variant_string: C10L
protein stability index: 3.85
//
variant_string: C10M
protein stability index: 3.75
//
variant_string: F1E
protein stability index: 5.62

Query :: Returns the measured protein stability index for the input variant. Input: L13I
Result :: 3.97

Query :: Same read-out for E23S ?
Result :: 3.66
